Collected from the literature: IC50 of various compounds toward Autotaxin (Homo sapiens).

Autotaxin (Homo sapiens) assay, compound Cc1nc2ccc(CN3C(=O)N(C)C(=O)C34CCN(C(=O)[C@H](NC(=O)c3cc(C(F)(F)F)ccc3F)C(C)C)CC4)cc2o1 , recorded IC50 = < 500 nM

Autotaxin (Homo sapiens) assay, compound CCCCCC1CN(CC(=O)N2CCC(C)CC2)C(=O)c2cc(-c3ccc(Cl)cc3)nn21 (stereo not drawn) , recorded IC50 = 100 to 1000 nM

Autotaxin (Homo sapiens) assay, compound O=C(CCN1C(=O)[C@@H]2Cc3c(n(Cc4ccc(F)cc4)c4ccccc34)CN2C1=O)NS(=O)(=O)c1ccccc1 , recorded IC50 = < 500 nM

Autotaxin (Homo sapiens) assay, compound Cc1c(Sc2cccc(C(=O)O)n2)c2ccc(Cl)c(F)c2n1CC(=O)N1CCc2ccccc21 , recorded IC50 = ≤ 500 nM

Autotaxin (Homo sapiens) assay, compound O=C(c1cnc(NCc2cc(OC(F)(F)F)cc(C3CCC3)c2)nc1)N1CCC12COC2 , recorded IC50 = < 100 nM

Autotaxin (Homo sapiens) assay, compound Cn1c(COc2cc(NS(C)(=O)=O)c(Cl)cc2C2CC2)n[nH]c1=O , recorded IC50 = > 27000 nM

Autotaxin (Homo sapiens) assay, compound CCCCCC1CN(Cc2ccc(O)cc2)C(=O)c2cc(-c3ccc(Cl)cc3)nn21 (stereo not drawn) , recorded IC50 = ≥ 1000 nM

Autotaxin (Homo sapiens) assay, compound NS(=O)(=O)c1ccc(C(=O)N2C[C@H]3CN(C(=O)OCc4ccc(OC(F)(F)F)cc4)C[C@]3(F)C2)c(F)c1 (relative stereo) , recorded IC50 = 7 nM

Autotaxin (Homo sapiens) assay, compound CC(C)(O)C1CCN1C(=O)c1cnc(NCc2cc(C3CC3)cc(C3CC3)c2)nc1 (stereo not drawn) , recorded IC50 = < 100 nM

Autotaxin (Homo sapiens) assay, compound O=C(c1cnc(NC2Cc3ccc(Cl)cc3C2)nc1)N1CCC12CS(=O)(=O)C2 (stereo not drawn) , recorded IC50 = < 100 nM

Autotaxin (Homo sapiens) assay, compound O=C(c1cc(OCC2CCOCC2)cc(C2CC2)c1)N1CC[C@@H]2CN(C(=O)[C@@H]3CCc4[nH]nnc4C3)C[C@@H]2CC1 , recorded IC50 = 7 nM

Autotaxin (Homo sapiens) assay, compound O=C(/C=C/c1ccc(OC(F)(F)F)cc1)N1C[C@H]2CCN(C(=O)c3ccc4[nH]nnc4c3)C[C@@H]2C1 , recorded IC50 = 12 nM

Autotaxin (Homo sapiens) assay, compound CN1C(=O)N(Cc2ccc3nccnc3c2)C2(CCN(C(=O)[C@H](NC(=O)c3cc(C(F)(F)F)ccc3F)C3CCC3)CC2)C1=O , recorded IC50 = < 500 nM

Autotaxin (Homo sapiens) assay, compound CC[C@@H](c1ccc2c(C(F)F)c(O[C@H]3CC[C@@H](C)CC3)ccc2c1)N1CCC[C@H](CC(=O)O)C1 , recorded IC50 = ≤ 100 nM

Autotaxin (Homo sapiens) assay, compound Cc1cc(OCC(=O)N2CC[C@@H]3CN(C(=O)c4ccc5[nH]nnc5c4)C[C@@H]3CC2)c(C(C)C)cc1Cl , recorded IC50 = 10 nM

Autotaxin (Homo sapiens) assay, compound O=C1OC[C@H]2Cc3c(n(Cc4ccc(F)cc4)c4ccccc34)CN12 , recorded IC50 = > 1000 nM

Autotaxin (Homo sapiens) assay, compound Cc1cccc(C(=O)N[C@@H](C(=O)N2CCC3(CC2)C(=O)N(C)CN3c2cccnc2)C(C)C)c1 , recorded IC50 = ≥ 1000 nM

Autotaxin (Homo sapiens) assay, compound O=C(CCc1cc(Cl)cc(Cl)c1)N1CCC2(CC1)CC(Nc1ccc3[nH]c(=O)oc3c1)C2 , recorded IC50 = 362 nM

Autotaxin (Homo sapiens) assay, compound O=C(c1cnc(NC2Cc3ccccc3C2)nc1)N1CCC12COC2 , recorded IC50 = 100 to 1000 nM

Autotaxin (Homo sapiens) assay, compound CCCCC1CN(CC(=O)NCCO)C(=O)c2cc(-c3ccc(Cl)cc3)nn21 (stereo not drawn) , recorded IC50 = 100 to 1000 nM

Autotaxin (Homo sapiens) assay, compound CCc1nc2sc(N3CC[C@@H](N(C)CC(=O)N4CC(C(=O)O)C4)C3)nn2c1N(C)c1nc(-c2ccc(F)cc2)c(C#N)s1 , recorded IC50 = 100 to 500 nM
